STUDY_TARGET: MAGI3_2, Q5TCQ9
Sequence (Q5TCQ9 398-503): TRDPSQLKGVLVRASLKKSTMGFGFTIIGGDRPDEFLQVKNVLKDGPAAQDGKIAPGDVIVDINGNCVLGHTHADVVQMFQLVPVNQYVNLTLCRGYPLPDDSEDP
EXPERIMENT_SUMMARY: holdup assay
Design: key: below the threshold = too weak to quantify, mostly under pKd 3.1 to 4
EXPERIMENTAL_CONTEXT: plain residues with an end cap or a label only (N-terminal biotin on a linker: ado-ado)
PROPERTY_NAME: pKd

INSERT INTO measurements (binder, property_name, meas_value) VALUES
  ('PKSNSSKEYV [CLDN7, O95471]', 'pKd', 'below the threshold'),
  ('GSQSQVETEA [FKBP4, Q02790]', 'pKd', 'below the threshold'),
  ('KLQNPNQSVV [TYRP1, P17643]', 'pKd', 4.46),
  ('ADEMICITTL [CACNA1D, Q01668]', 'pKd', 'below the threshold'),
  ('RDYTQSSSSL [GRM5, P41594]', 'pKd', 'below the threshold'),
  ('VISSDDLTEL [CAPN6, Q9Y6Q1]', 'pKd', 'below the threshold'),
  ('GDSSRKEYFI [GYPC, P04921]', 'pKd', 4.41),
  ('PALKNGQYWV [CSPG4, Q6UVK1]', 'pKd', 4.03),
  ('KIEDVEITLV [FCHSD2, O94868]', 'pKd', 4.05),
  ('NSTHNLKDYV [CLDN20, P56880]', 'pKd', 'below the threshold'),
  ('DFKHTKSFII [JAM2, P57087]', 'pKd', 'below the threshold'),
  ('THREVKFTSL [CD46, P15529]', 'pKd', 'below the threshold'),
  ('HYPASPDSWV [CTNND2, Q9UQB3]', 'pKd', 3.86);

Data origin: paper PMC9482650
